- PROTOCOL_NOTES: Pharmacokinetic study in pigs (plasma concentration by LC-MS)
- Format: in vivo, pig
- APPLIED_CONDITIONS: both sexes, Swiss large white, pig, plasma, intravenous, 4 mg kg^−1, read-out: clearance rate (CL)
Starred links: 1 amine or outer side, 2 acyl side, 3 side chain; linkers in the order of their positions; H or OH if unused. Positions of bridges follow the written chain, without caps; N, C: chain ends. Non-standard residues stand in square brackets, D forms with d. Residues, ends and D or L forms follow the SMILES beside them. TATA = O=C(CC[*:1])N1CN(C(=O)CC[*:2])CN(C(=O)CC[*:3])C1; Phe(4-F) = N[C@@H](Cc1ccc(F)cc1)C(=O)O; β3hR = N=C(N)NCCC[C@H](N)CC(=O)O
READOUT_LABEL: clearance (mL/min/kg)
The figure you give is taken to be in mL/min/kg; do not add the unit.

Query: clearance; subject: CC(C)C[C@@H]1NC(=O)[C@H](CCC(N)=O)NC(=O)[C@H](Cc2c[nH]cn2)NC(=O)[C@@H]2CSCCC(=O)N3CN(CN(C3)C(=O)CCSC[C@H](NC(=O)[C@@H](CO)NC(=O)[C@H](N)CCCNC(=N)N)C(=O)N[C@@H](Cc3ccc(F)cc3)C(=O)N[C@@H](CCCNC(=N)N)C(=O)N[C@@H](CC(C)C)C(=O)N3CCC[C@H]3C(=O)N2)C(=O)CCSC[C@@H](C(N)=O)NC(=O)C[C@H](CCCNC(=N)N)NC1=O [FXII900] (H-[dR][dS]C[Phe(4-F)]RLPCHQL[β3hR]C-NH2; linker 3-8-13 via TATA)
11.8

====

- PROTOCOL_NOTES: Pharmacokinetic study in pigs (plasma concentration by LC-MS)
- Assay type: in vivo, pig
- APPLIED_CONDITIONS: both sexes, Swiss large white, pig, plasma, iv, 4 mg/kg, intravenous administration, 65 min, individual pigs and analyses, read-out: Plasma conc.
Starred links: 1 amine or outer side, 2 acyl side, 3 side chain; linkers in the order of their positions; H or OH if unused. Positions of bridges follow the written chain, without caps; N, C: chain ends. Non-standard residues stand in square brackets, D forms with d. Residues, ends and D or L forms follow the SMILES beside them. TATA = O=C(CC[*:1])N1CN(C(=O)CC[*:2])CN(C(=O)CC[*:3])C1; Phe(4-F) = N[C@@H](Cc1ccc(F)cc1)C(=O)O; β3hR = N=C(N)NCCC[C@H](N)CC(=O)O
READOUT_LABEL: level at time molar at 65 min (nM)
Express the result in nM but write the number alone.

// query level at time molar at 65 min value for entry CC(C)C[C@@H]1NC(=O)[C@H](CCC(N)=O)NC(=O)[C@H](Cc2c[nH]cn2)NC(=O)[C@@H]2CSCCC(=O)N3CN(CN(C3)C(=O)CCSC[C@H](NC(=O)[C@@H](CO)NC(=O)[C@H](N)CCCNC(=N)N)C(=O)N[C@@H](Cc3ccc(F)cc3)C(=O)N[C@@H](CCCNC(=N)N)C(=O)N[C@@H](CC(C)C)C(=O)N3CCC[C@H]3C(=O)N2)C(=O)CCSC[C@@H](C(N)=O)NC(=O)C[C@H](CCCNC(=N)N)NC1=O [FXII900] (H-[dR][dS]C[Phe(4-F)]RLPCHQL[β3hR]C-NH2; linker 3-8-13 via TATA)
692

====

- PROTOCOL_NOTES: Pharmacokinetic study in pigs (plasma concentration by LC-MS)
- Assay type: in vivo, pig
- APPLIED_CONDITIONS: both sexes, Swiss large white, pig, plasma, iv, 4 mg/kg, intravenous administration, 66 min, individual pigs and analyses, read-out: Plasma conc.
Starred links: 1 amine or outer side, 2 acyl side, 3 side chain; linkers in the order of their positions; H or OH if unused. Positions of bridges follow the written chain, without caps; N, C: chain ends. Non-standard residues stand in square brackets, D forms with d. Residues, ends and D or L forms follow the SMILES beside them. TATA = O=C(CC[*:1])N1CN(C(=O)CC[*:2])CN(C(=O)CC[*:3])C1; Phe(4-F) = N[C@@H](Cc1ccc(F)cc1)C(=O)O; β3hR = N=C(N)NCCC[C@H](N)CC(=O)O
READOUT_LABEL: level at time molar at 1.1 h (nM)
Express it in nM; write the number only.

For CC(C)C[C@@H]1NC(=O)[C@H](CCC(N)=O)NC(=O)[C@H](Cc2c[nH]cn2)NC(=O)[C@@H]2CSCCC(=O)N3CN(CN(C3)C(=O)CCSC[C@H](NC(=O)[C@@H](CO)NC(=O)[C@H](N)CCCNC(=N)N)C(=O)N[C@@H](Cc3ccc(F)cc3)C(=O)N[C@@H](CCCNC(=N)N)C(=O)N[C@@H](CC(C)C)C(=O)N3CCC[C@H]3C(=O)N2)C(=O)CCSC[C@@H](C(N)=O)NC(=O)C[C@H](CCCNC(=N)N)NC1=O [FXII900] (H-[dR][dS]C[Phe(4-F)]RLPCHQL[β3hR]C-NH2; linker 3-8-13 via TATA) , what is its reported level at time molar at 1.1 h?
799

====

- PROTOCOL_NOTES: Pharmacokinetic study in rabbits (plasma concentration by LC-MS)
- Assay type: in vivo, rabbit
- APPLIED_CONDITIONS: female, New Zealand White, rabbit, plasma, intravenous, 3.7 mg kg-1
Starred links: 1 amine or outer side, 2 acyl side, 3 side chain; linkers in the order of their positions; H or OH if unused. Positions of bridges follow the written chain, without caps; N, C: chain ends. Non-standard residues stand in square brackets, D forms with d. Residues, ends and D or L forms follow the SMILES beside them. TATA = O=C(CC[*:1])N1CN(C(=O)CC[*:2])CN(C(=O)CC[*:3])C1; Phe(4-F) = N[C@@H](Cc1ccc(F)cc1)C(=O)O; β3hR = N=C(N)NCCC[C@H](N)CC(=O)O
READOUT_LABEL: Vd

So what does the record say about Vd for CC(C)C[C@@H]1NC(=O)[C@H](CCC(N)=O)NC(=O)[C@H](Cc2c[nH]cn2)NC(=O)[C@@H]2CSCCC(=O)N3CN(CN(C3)C(=O)CCSC[C@H](NC(=O)[C@@H](CO)NC(=O)[C@H](N)CCCNC(=N)N)C(=O)N[C@@H](Cc3ccc(F)cc3)C(=O)N[C@@H](CCCNC(=N)N)C(=O)N[C@@H](CC(C)C)C(=O)N3CCC[C@H]3C(=O)N2)C(=O)CCSC[C@@H](C(N)=O)NC(=O)C[C@H](CCCNC(=N)N)NC1=O [FXII900] (H-[dR][dS]C[Phe(4-F)]RLPCHQL[β3hR]C-NH2; linker 3-8-13 via TATA) ?
0.28 L/kg

====

- PROTOCOL_NOTES: Pharmacokinetic study in pigs (plasma concentration by LC-MS)
- Assay type: in vivo, pig
- APPLIED_CONDITIONS: both sexes, Swiss large white, pig, plasma, iv, 4 mg/kg, intravenous administration, 16 min, individual pigs and analyses, read-out: Plasma conc.
- Procedure: Swiss large white pigs, both sexes, 3–4 months old (30 ± 5 kg) were anesthetized and prepared following procedures used to study myocardial ischemia/reperfusion injury. In this procedure, the ACT is monitored and 2500 IU of heparin are injected when ACT values fall below 180 s. Pigs were injected intravenously with 4 mg kg^−1 of FXII900 dissolved in 1 ml PBS, pH 7.4. […] The concentration of FXII900 in the plasma samples was determined by LC-MS as described below. […]
Starred links: 1 amine or outer side, 2 acyl side, 3 side chain; linkers in the order of their positions; H or OH if unused. Positions of bridges follow the written chain, without caps; N, C: chain ends. Non-standard residues stand in square brackets, D forms with d. Residues, ends and D or L forms follow the SMILES beside them. TATA = O=C(CC[*:1])N1CN(C(=O)CC[*:2])CN(C(=O)CC[*:3])C1; Phe(4-F) = N[C@@H](Cc1ccc(F)cc1)C(=O)O; β3hR = N=C(N)NCCC[C@H](N)CC(=O)O
READOUT_LABEL: level at time molar at 16 min (µM)
The reply should be a number in µM, with the unit left off.

Report level at time molar at 16 min for CC(C)C[C@@H]1NC(=O)[C@H](CCC(N)=O)NC(=O)[C@H](Cc2c[nH]cn2)NC(=O)[C@@H]2CSCCC(=O)N3CN(CN(C3)C(=O)CCSC[C@H](NC(=O)[C@@H](CO)NC(=O)[C@H](N)CCCNC(=N)N)C(=O)N[C@@H](Cc3ccc(F)cc3)C(=O)N[C@@H](CCCNC(=N)N)C(=O)N[C@@H](CC(C)C)C(=O)N3CCC[C@H]3C(=O)N2)C(=O)CCSC[C@@H](C(N)=O)NC(=O)C[C@H](CCCNC(=N)N)NC1=O [FXII900] (H-[dR][dS]C[Phe(4-F)]RLPCHQL[β3hR]C-NH2; linker 3-8-13 via TATA) please.
3.71
